target: human DGKζ (Homo sapiens); construct: TVMV protease cleavage site (C); Hexa-His (C); made in house; host or cells: Sf9 insect cells (baculovirus, Bac-to-Bac); test: DGKζ LIPGLO assay (extruded liposome substrate), in vitro DGK inhibition; type: biochemical; settings: liposome (LIPGLO) assay; read-out: DGKz LIPGLO IC50
Sequence (Q13574 with tags, fused parts or gaps isoform Q13574-4): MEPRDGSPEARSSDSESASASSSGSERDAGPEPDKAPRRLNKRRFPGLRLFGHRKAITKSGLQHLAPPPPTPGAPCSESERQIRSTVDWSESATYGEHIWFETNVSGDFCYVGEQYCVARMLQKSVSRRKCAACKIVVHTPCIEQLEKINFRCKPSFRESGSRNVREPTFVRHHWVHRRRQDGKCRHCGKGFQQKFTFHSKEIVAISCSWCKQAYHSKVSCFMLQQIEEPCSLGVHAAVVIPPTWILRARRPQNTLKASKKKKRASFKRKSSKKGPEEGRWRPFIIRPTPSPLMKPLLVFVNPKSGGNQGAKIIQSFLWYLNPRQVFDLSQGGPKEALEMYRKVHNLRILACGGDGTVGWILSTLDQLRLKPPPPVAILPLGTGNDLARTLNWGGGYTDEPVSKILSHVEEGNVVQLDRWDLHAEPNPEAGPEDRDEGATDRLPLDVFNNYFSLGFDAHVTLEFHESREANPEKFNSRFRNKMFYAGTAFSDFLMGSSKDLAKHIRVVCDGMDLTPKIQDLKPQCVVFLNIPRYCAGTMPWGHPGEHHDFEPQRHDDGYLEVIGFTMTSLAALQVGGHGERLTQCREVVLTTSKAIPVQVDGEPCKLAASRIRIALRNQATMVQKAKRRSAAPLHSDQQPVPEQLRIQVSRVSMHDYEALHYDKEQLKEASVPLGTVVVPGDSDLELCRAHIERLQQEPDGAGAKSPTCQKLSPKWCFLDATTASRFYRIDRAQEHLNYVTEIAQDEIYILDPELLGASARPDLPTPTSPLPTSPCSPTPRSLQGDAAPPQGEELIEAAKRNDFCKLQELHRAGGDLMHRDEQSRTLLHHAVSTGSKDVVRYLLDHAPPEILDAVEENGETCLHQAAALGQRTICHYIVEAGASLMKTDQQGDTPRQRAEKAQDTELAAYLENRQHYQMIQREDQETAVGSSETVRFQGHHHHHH

MOLECULE: CCc1cc(F)ccc1C(c1ccc(Cl)cc1)N1C[C@H](C)N(c2cc(=O)n(C)c3ccc(OC)nc23)C[C@H]1C (single isomer, unassigned) [Example 231]
ASSAY SYSTEM: human DGKζ (Homo sapiens)
MEASUREMENT UNITS: nM
IC50: 3700
//
MOLECULE: C[C@@H]1CN(c2cc(=O)n(C)c3ccc(C#N)nc23)[C@@H](C)CN1Cc1cc(C#N)cs1
ASSAY SYSTEM: human DGKζ (Homo sapiens)
MEASUREMENT UNITS: nM
IC50: 4200
//
MOLECULE: C[C@@H]1CN(c2cc(=O)n(C)c3ccc(C#N)nc23)[C@@H](C)CN1C(c1ccc(F)cc1)c1nccs1 (single isomer, unassigned) [Example 712]
ASSAY SYSTEM: human DGKζ (Homo sapiens)
MEASUREMENT UNITS: nM
IC50: 720
//
MOLECULE: C[C@@H]1CN(c2cc(=O)n(C)c3ccc(C#N)nc23)[C@@H](C)CN1C(c1ccc(F)cc1)c1ccc(P(C)(C)=O)cc1 (single isomer, unassigned) [Example 1293]
ASSAY SYSTEM: human DGKζ (Homo sapiens)
MEASUREMENT UNITS: nM
IC50: 6100
//
MOLECULE: COc1cc(F)ccc1C(c1ccc(F)cc1)N1C[C@H](C)N(c2cc(=O)n(C)c3ccc(C#N)nc23)C[C@H]1C (single isomer, unassigned) [Example 108]
ASSAY SYSTEM: human DGKζ (Homo sapiens)
MEASUREMENT UNITS: nM
IC50: 130
//
MOLECULE: Cn1c(=O)cc(N2CCN(C(c3ccc(F)cc3)c3ccc(F)cc3)C(C#N)C2)c2nc(C#N)ccc21 (stereo not drawn) [Example 43]
ASSAY SYSTEM: human DGKζ (Homo sapiens)
MEASUREMENT UNITS: nM
IC50: 3100
//
MOLECULE: Cn1c(=O)c(C#N)c(N2CCN(C(c3ccc(F)cc3)c3ccc(F)cc3)C(C(=O)NC3CC3)C2)c2nc(C#N)ccc21 (single isomer, unassigned) [Example 60]
ASSAY SYSTEM: human DGKζ (Homo sapiens)
MEASUREMENT UNITS: nM
IC50: 72000
//
MOLECULE: COc1cc(F)ccc1C(C)N1C[C@H](C)N(c2cc(=O)n(C)c3ccc(C#N)nc23)C[C@H]1C (single isomer, unassigned) [Example 1237]
ASSAY SYSTEM: human DGKζ (Homo sapiens)
MEASUREMENT UNITS: nM
IC50: 580
//
MOLECULE: C[C@@H]1CN(c2cc(=O)n(C)c3ccc(C#N)nc23)[C@@H](C)CN1C(c1ccc(OC(F)(F)F)cc1F)C1CC1 (stereo partly drawn) [Example 481]
ASSAY SYSTEM: human DGKζ (Homo sapiens)
MEASUREMENT UNITS: nM
IC50: 1800
//
MOLECULE: C[C@@H]1CN(c2cc(=O)n(C)c3ccc(C#N)nc23)[C@@H](C)CN1C(c1ccc(F)cc1)c1cccc2ccnn12 (single isomer, unassigned) [Example 695]
ASSAY SYSTEM: human DGKζ (Homo sapiens)
MEASUREMENT UNITS: nM
IC50: 280
//
MOLECULE: C[C@@H]1CN(c2cc(=O)n(C)c3ccc(C#N)nc23)[C@@H](C)CN1C(c1ccc(Cl)cc1)c1cc(F)ccn1 (stereo partly drawn)
ASSAY SYSTEM: human DGKζ (Homo sapiens)
MEASUREMENT UNITS: nM
IC50: 2100
//
MOLECULE: C[C@@H]1CN(c2c(F)c(=O)n(C)c3ccc(C#N)nc23)[C@@H](C)CN1C(c1ccc(F)cc1)c1ccc(C#N)cc1 (stereo partly drawn) [Example 327]
ASSAY SYSTEM: human DGKζ (Homo sapiens)
MEASUREMENT UNITS: nM
IC50: 4900

###

biological target: human DGKα (Homo sapiens, UniProt P23743); construct: TVMV protease cleavage site (C); Hexa-His (C); made in house; host or cells: Sf9 insect cells (baculovirus, Bac-to-Bac); experiment: DGKα LIPGLO assay (extruded liposome substrate), in vitro DGK inhibition; assay type: biochemical; details: liposome (LIPGLO) assay; read-out: DGKa LIPGLO IC50
Sequence (P23743 with tags, fused parts or gaps): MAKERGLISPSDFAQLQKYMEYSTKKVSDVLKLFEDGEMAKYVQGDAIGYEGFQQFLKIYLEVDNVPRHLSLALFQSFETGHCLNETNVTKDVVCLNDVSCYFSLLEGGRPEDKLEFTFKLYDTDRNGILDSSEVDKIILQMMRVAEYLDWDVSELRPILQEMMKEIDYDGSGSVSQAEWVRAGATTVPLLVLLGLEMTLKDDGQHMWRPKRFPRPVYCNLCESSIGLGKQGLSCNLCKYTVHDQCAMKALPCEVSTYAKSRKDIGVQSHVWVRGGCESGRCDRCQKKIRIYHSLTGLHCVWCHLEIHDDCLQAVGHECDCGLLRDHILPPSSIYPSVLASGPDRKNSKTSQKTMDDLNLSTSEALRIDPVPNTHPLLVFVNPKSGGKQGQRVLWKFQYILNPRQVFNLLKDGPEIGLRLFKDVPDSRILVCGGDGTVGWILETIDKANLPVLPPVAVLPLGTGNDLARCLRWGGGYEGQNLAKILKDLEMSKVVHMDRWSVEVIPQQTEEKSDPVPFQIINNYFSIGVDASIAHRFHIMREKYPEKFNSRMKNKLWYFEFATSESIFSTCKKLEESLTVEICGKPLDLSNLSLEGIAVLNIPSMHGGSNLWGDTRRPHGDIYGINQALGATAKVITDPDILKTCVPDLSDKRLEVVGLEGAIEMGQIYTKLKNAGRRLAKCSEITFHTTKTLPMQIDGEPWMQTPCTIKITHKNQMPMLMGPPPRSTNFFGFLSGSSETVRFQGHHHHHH
RESULT TYPE: IC50 (µM)

MOLECULE: C[C@@H]1CN(c2cc(=O)n(C)c3ccc(C#N)nc23)[C@@H](C)CN1C(c1ccc(F)cc1)c1ncccc1F (single isomer, unassigned) [Example 188]
MEASURED: 0.69
--
MOLECULE: CC[C@@H]1CN(c2cc(=O)n(C)c3ccc(C#N)nc23)[C@@H](C)CN1C(c1ccc(F)cc1)c1ccc(C#N)cc1 (single isomer, unassigned) [Example 1103]
MEASURED: 0.25
--
MOLECULE: COC[C@@H]1CN(c2cc(=O)n(C)c3ccc(C#N)nc23)[C@@H](C)CN1C(c1ccc(F)cc1)c1ccc(C#N)cc1 (single isomer, unassigned) [Example 1157]
MEASURED: 4.2
--
MOLECULE: CC[C@H]1CN(C(C)c2ccc(C3CC3)cc2F)[C@H](CC)CN1c1cc(=O)n(C)c2ccc(C#N)nc12 (single isomer, unassigned) [Example 1358]
MEASURED: 1.7
--
MOLECULE: C[C@@H]1CN(c2cc(=O)n(C)c3ccc(C#N)nc23)[C@@H](C)CN1C(c1ccc(F)cc1)c1ccc(Cl)cc1 (single isomer, unassigned) [Example 303]
MEASURED: 0.5
--
MOLECULE: C[C@@H]1CN(c2c(F)c(=O)n(C)c3ccc(C#N)nc23)[C@@H](C)CN1C(c1ccc(F)cc1)c1ccc(C(F)(F)F)cc1 (stereo partly drawn) [Example 325]
MEASURED: 0.68

###

target: human DGKα (Homo sapiens); construct: TVMV protease cleavage site (C); Hexa-His (C); made in house; host or cells: Sf9 insect cells (baculovirus, Bac-to-Bac); assay: DGKα LIPGLO assay (extruded liposome substrate), in vitro DGK inhibition; type: biochemical; details: liposome (LIPGLO) assay; read-out: DGKa LIPGLO IC50
Entries and their measured IC50 follow.

MOLECULE: C[C@@H]1CN(c2cc(=O)n(C)c3ccc(C#N)nc23)[C@@H](C)CN1Cc1ccc(OC(F)(F)F)cc1Br [Example 593]
MEASUREMENT UNITS: µM
IC50: 3.1

MOLECULE: Cc1ccc(C(c2ccc(F)cc2)N2C[C@H](C)N(c3c(F)c(=O)n(C)c4ccc(C#N)nc34)C[C@H]2C)cc1 (stereo partly drawn) [Example 335]
MEASUREMENT UNITS: µM
IC50: 1.2

MOLECULE: CC[C@@H]1CN(c2c(F)c(=O)n(C)c3ccc(C#N)nc23)[C@@H](C)CN1C(C)c1ccc(OC(F)(F)F)cc1 (single isomer, unassigned) [Example 1329]
MEASUREMENT UNITS: µM
IC50: 1.5

MOLECULE: CC[C@H]1CN(C(c2ccc(F)cc2)c2cccc(C(F)(F)F)n2)[C@H](CC)CN1c1cc(=O)n(C)c2ccc(C#N)nc12 (single isomer, unassigned) [Example 1046]
MEASUREMENT UNITS: µM
IC50: 0.09

MOLECULE: C[C@@H]1CN(c2cc(=O)n(C)c3ccc(C#N)nc23)[C@@H](C)CN1C(c1ccc(O)cc1F)C(F)(F)F (stereo partly drawn) [Example 625]
MEASUREMENT UNITS: µM
IC50: 0.23

MOLECULE: C[C@@H]1CN(c2cc(=O)n(C)c3ccc(C#N)nc23)[C@@H](C)CN1Cc1c(F)cccc1C(F)(F)F [Example 254]
MEASUREMENT UNITS: µM
IC50: 0.14

MOLECULE: CC[C@@H]1CN(c2cc(=O)n(C)c3ccc(C#N)nc23)[C@@H](C)CN1C(C)c1ccc(OC(F)(F)F)cc1F (single isomer, unassigned) [Example 1096]
MEASUREMENT UNITS: µM
IC50: 2.2

MOLECULE: CC[C@@H]1CN(c2cc(=O)n(C)c3ccc(C#N)nc23)[C@@H](C)CN1C(C)c1ccc(OC(C)C)cc1 (single isomer, unassigned) [Example 1349]
MEASUREMENT UNITS: µM
IC50: 5.4

MOLECULE: CC[C@H]1CN(C(c2ccc(F)cc2)c2ccc(C(F)(F)F)cn2)[C@H](CC)CN1c1cc(=O)n(C)c2ccc(C#N)nc12 (stereo partly drawn) [Example 1040]
MEASUREMENT UNITS: µM
IC50: 0.042

MOLECULE: CCc1ccc(C(c2cccc(Cl)c2)N2C[C@H](C)N(c3cc(=O)n(C)c4ccc(C#N)nc34)C[C@H]2C)nc1 (single isomer, unassigned) [Example 355]
MEASUREMENT UNITS: µM
IC50: 0.89

MOLECULE: CC(C)Oc1ccc(C(c2cccc(F)c2)N2C[C@H](C)N(c3cc(=O)n(C)c4ccc(C#N)nc34)C[C@H]2C)nc1 (stereo partly drawn) [Example 690]
MEASUREMENT UNITS: µM
IC50: 1.5

MOLECULE: CC(c1ccc(OC(F)(F)F)c(F)c1)N1C[C@H](C)N(c2cc(=O)n(C)c3ccc(C#N)nc23)C[C@H]1C (single isomer, unassigned) [Example 1204]
MEASUREMENT UNITS: µM
IC50: 0.12

MOLECULE: C[C@@H]1CN(c2cc(=O)n(C)c3ccc(C#N)nc23)[C@@H](C)CN1C(c1ccc(Cl)cc1)c1ccc(Cl)cn1 (single isomer, unassigned) [Example 201]
MEASUREMENT UNITS: µM
IC50: 0.45

MOLECULE: CCC(c1ccc(OCCC2CC2)cc1)N1C[C@H](C)N(c2cc(=O)n(C)c3ccc(C#N)nc23)C[C@H]1C (single isomer, unassigned) [Example 1446]
MEASUREMENT UNITS: µM
IC50: 0.26

MOLECULE: C[C@@H]1CN(c2cc(=O)n(C)c3ccc(C#N)nc23)[C@@H](C)CN1C(c1ccc(F)cc1)c1ncccn1 (stereo partly drawn) [Example 677]
MEASUREMENT UNITS: µM
IC50: 0.15

MOLECULE: CC(c1ccc(C2(C#N)CC2)cc1F)N1C[C@H](C)N(c2cc(=O)n(C)c3ccc(C#N)nc23)C[C@H]1C (single isomer, unassigned) [Example 1251]
MEASUREMENT UNITS: µM
IC50: 1.6

MOLECULE: C[C@@H]1CN(c2cc(=O)n(C)c3ccc(C#N)nc23)[C@@H](C)CN1Cc1c(F)cc(C#N)cc1F [Example 267]
MEASUREMENT UNITS: µM
IC50: 0.39

MOLECULE: Cc1ccc(C(c2ccc(Cl)cc2)N2C[C@H](C)N(c3cc(=O)n(C)c4ccc(C#N)nc34)C[C@H]2C)nc1 (single isomer, unassigned) [Example 363]
MEASUREMENT UNITS: µM
IC50: 0.15

MOLECULE: Cn1c(=O)c(C#N)c(N2CCN(C(c3ccc(F)cc3)c3ccc(F)cc3)C(C(=O)O)C2)c2nc(Br)ccc21 (stereo not drawn) [Example 52]
MEASUREMENT UNITS: µM
IC50: 24

MOLECULE: Cc1nnc(C2CN(c3cc(=O)n(C)c4ccc(C#N)nc34)CCN2C(c2ccc(F)cc2)c2ccc(F)cc2)o1 (stereo not drawn) [Example 126]
MEASUREMENT UNITS: µM
IC50: 230

MOLECULE: [2H]C(C)(c1ccc(F)cc1)N1C[C@H](C)N(c2c(F)c(=O)n(C)c3ccc(C#N)nc23)C[C@H]1C (single isomer, unassigned) [Example 425]
MEASUREMENT UNITS: µM
IC50: 0.058

MOLECULE: Cc1ccc(C(c2ccc(Cl)cc2)N2C[C@H](C)N(c3cc(=O)n(C)c4ccc(C#N)nc34)C[C@H]2C)cc1 (single isomer, unassigned) [Example 250]
MEASUREMENT UNITS: µM
IC50: 0.6

MOLECULE: CC[C@H]1CN(C(c2ccc(F)cc2)c2ccc(C(F)(F)F)cn2)[C@H](C)CN1c1cc(=O)n(C)c2ccc(C#N)nc12 (single isomer, unassigned) [Example 1132]
MEASUREMENT UNITS: µM
IC50: 0.62

MOLECULE: CC[C@H]1CN(C(c2cccc(F)c2)c2ccc(OC)cn2)[C@H](CC)CN1c1cc(=O)n(C)c2ccc(C#N)nc12 (stereo partly drawn) [Example 1047]
MEASUREMENT UNITS: µM
IC50: 0.21
